Values compiled from PubChem BioAssay (NCI).

system: SK-MEL-28 melanoma; experiment: NCI-60 one-dose screen, 48 h; conditions: 10 µM unless noted
The panel holds about 83,000 compounds, 20% with a hit somewhere; the sample as a whole holds those more often. Calls of active or inactive are those of the source. The calls were made as follows: active = growth percent below 10; inactive = the rest.
Can you answer with just one of these options? active, inactive

Q: I'd appreciate the recorded outcome for CN(CCNCc1ccccn1)CCNCc1ccccn1 from this test.
Ans: inactive

Q: Please share the test call associated with O=C(Nc1ccc(-n2ccc3c(NC(=O)c4ccccc4)nccc32)cc1)Nc1cccc(C(F)(F)F)c1 .
Ans: inactive

Q: Name the outcome recorded for CC(C)(CCN=C(N)Nc1ccccn1)c1ccc(C(F)(F)F)cc1 in the assay.
Ans: active

Q: Assay outcome for Cc1cccc[n+]1CCC[n+]1ccccc1C : what was it?
Ans: inactive

Q: Kindly provide the recorded test outcome for the following molecule: COc1ccc(/C=C/C(=O)/C=C(/C=C/c2ccc(OC)c(OC)c2OC)OB(F)F)c(OC)c1OC
Ans: inactive

Q: Write down the call the test reported for this molecule. Item: O=C(COc1ccc(Cl)cc1Cl)N1N=C(c2ccc(Cl)cc2Cl)CC1(O)c1cc(F)c(Cl)cc1Cl (centres undefined)
Ans: inactive

Q: Which outcome was assigned to CCCN1C(=O)CSC1=Nc1ccc2cc3ccc(N=C4SCC(=O)N4CCC)cc3nc2c1 in this test?
Ans: inactive

Q: Identify the outcome logged in this assay for the molecule shown: COc1ccc(N)c(S)c1
Ans: inactive

Q: Identify the outcome logged in this assay for the molecule shown: CCN(CC)CC(=O)Nc1c(C)cccc1C
Ans: inactive

Q: Recorded call for CCOC(=O)c1cnc2c(OC)ccc(OC)c2c1Cl ?
Ans: inactive

Q: Which outcome did this test record for the molecule O=C1COc2ccccc2C(=O)N1CCCCNc1ccccc1 ?
Ans: inactive

Q: Please state the recorded outcome for this molecule: Cc1cc(Nc2ccc(Cl)c(Cl)c2)nc(N)n1
Ans: inactive

Q: Given S=c1[nH]nc(Cn2c3ccccc3c3ccncc32)o1 , state the outcome it received in this test.
Ans: inactive

Q: Please let me know the test result on file for O=c1c2ccccc2sc2c(NCCN3CCOCC3)nc3ccccc3c12 .
Ans: inactive

Q: What was the test verdict on Cc1ncc(CO)c(C(=O)O)c1O ?
Ans: inactive

Q: For CN1C(=O)C2(SCC(C(=O)NCC(=O)OC(C)(C)C)N2C(=O)C2CCCCC2)c2ccccc21 (centres undefined) , what call appears in the results of this test?
Ans: inactive

Q: In this assay, the call recorded for COc1ccc(-c2coc3c(CO)c(O)ccc3c2=O)cc1 was what?
Ans: inactive

Q: Can you look up the reported call for Cl[C@@H]1CCO[C@H](c2cc3ccccc3c3ccccc23)C1 for me?
Ans: inactive

Q: Lab log entry: CC(C)(C)C(=O)Nc1nc2c(s1)CCc1ccn(S(=O)(=O)c3ccccc3)c1-2 — outcome as called in the assay?
Ans: inactive

Q: Answer briefly: the call reported for CCOC(=O)CSc1nnc(-c2cc3c([nH]c4ccccc43)c(-c3cccc(O)c3)n2)n1-c1ccc(C)cc1 in this assay.
Ans: inactive

Q: Any idea what this test logged for OC[C@@H](O)C(O[C@@H]1O[C@H](CO)[C@H](O)[C@H](O)[C@H]1O)[C@H](O)[C@@H](O)CO (some centres undefined) ?
Ans: inactive

Q: Short answer needed: outcome of this test for Cc1cn(-c2cc(C(=O)Nc3cccc(-n4ccc5c(NC(=O)c6ccccc6)nccc54)c3)cc(C(F)(F)F)c2)cn1 ?
Ans: inactive

Q: Please indicate how the test categorized O=C(Nc1ccc(-n2ccc3c(NC(=O)c4ccccc4)ncnc32)cc1)c1cccc(C(F)(F)F)c1 .
Ans: inactive

Q: Please state the recorded outcome for this molecule: O=[N+]([O-])c1ccc(NS(=O)(=O)c2ccccc2)c2ccccc12
Ans: inactive

Q: Call for entry CN1CCN(Cn2nc(-c3cc(Cl)cc(Cl)c3Cl)n(/N=C/c3ccc(Cl)cc3)c2=S)CC1 :
Ans: inactive

Q: Hey, what did the test say about CCCCNc1cc(C(=O)O)cc(S(N)(=O)=O)c1Oc1ccccc1 ?
Ans: inactive

Q: GET /call?item= CNCCCOc1c(Br)cc(CCNC(=O)/C(Cc2ccc(OC)c(Br)c2)=N/O)cc1Br returns the recorded outcome of this test.
Ans: active

Q: Hi, do you know how O=C(Nc1ccc(Cl)c(Cl)c1)Nc1ccc(Cl)c([N+](=O)[O-])c1 came out in this test?
Ans: inactive

Q: Could you check what this test reported for C=C1C(=O)O[C@H]2[C@H]1CC/C(COC(=O)CCCC(=O)OC/C1=C/CC[C@@]3(C)O[C@H]3[C@H]3OC(=O)C(=C)[C@@H]3CC1)=C\CC[C@@]1(C)O[C@@H]21 ?
Ans: active

Q: Answer briefly: the call reported for O=C(CNc1cccnc1)Nc1ccc(C(=O)/C=C/c2ccc(Cl)cc2)cc1 in this assay.
Ans: inactive

Q: How was COc1ccccc1S(=O)(=O)Nc1ccc2c3c(cc(-c4ccoc4)nc13)C(=O)N2C classified in this test?
Ans: inactive

Q: Please indicate how the test categorized c1coc(CSc2ncnc3nc[nH]c23)c1 .
Ans: inactive

Q: Check the results log: what was the call for COc1cc2ncnc(Oc3ccc(NC(=O)Nc4ccc(CN5CCOCC5)c(C(F)(F)F)c4)c4ccccc34)c2cc1OC ?
Ans: active

Q: Lab log entry: COC(=O)CCCNS(=O)(=O)c1cc(C(=O)Nc2ccc(NC(=O)c3cc(S(=O)(=O)NCCCC(=O)OC)c(O)c(O)c3O)cc2)c(O)c(O)c1O — outcome as called in the assay?
Ans: inactive
